These measurements were taken from paper PMC9569447.

Assay: Pharmacokinetics after subcutaneous administration to rats
Conditions: male, Sprague Dawley, rat, plasma, sc, 300 nmol/kg
Numbered stars: 1 amine (or outer) side, 2 acyl side, 3 side chain; on linkers, the order of the positions; unused ones are H or OH. Bridge positions count the residues as written; N and C are the ends. Square brackets hold non-standard residues; d marks the D form. Side chains are listed from the residue outwards. Peptide text beside a SMILES is read from it. * marks the point of attachment. PEG8 = NCCOCCOCCOCCOCCOCCOCCOCCOCCC(=O)O; Palmitoyl = CCCCCCCCCCCCCCCC(=O)*; hCys = N[C@@H](CCS)C(=O)O; X1 = O=C(CC[*:2])[*:1]
measured_metric: clearance

Exercise: Find the recorded clearance belonging to CCCCCCCCCCCCCCCC(=O)NCCOCCOCCOCCOCCOCCOCCOCCOCCC(=O)NCCCC[C@H](NC(=O)CNC(=O)[C@@H]1CCSCCC(=O)N[C@@H](Cc2ccc(O)cc2)C(=O)N[C@@H]([C@@H](C)CC)C(=O)N[C@@H](CCC(N)=O)C(=O)N[C@@H](CC(N)=O)C(=O)N1)C(=O)NCC(N)=O [ASK2131] (YIQN[hCys]GK([PEG8-Palmitoyl])G-NH2; linker N-5 via X1) and report it.
Solution: 1.2 mL/min/kg
